- Tested on: UACC-62
- EXPERIMENT_DESCRIPTION: NCI tumour cell line growth inhibition, 48 h
Calls of active or inactive are those of the source. Cut-off read from the data, not from the text of the source: active = GI50 up to about 1.1 µM and inactive = higher.
Classes used: 1 (active), -1 (inactive)

COMPOUND | CLASSIFICATION
Nc1nc(Cl)nc2c1ncn2C1CC(O)C(CO)O1 (stereo unspecified) | 1
O=[N+]([O-])C(=C/c1cccs1)/C(=C\c1cccs1)[N+](=O)[O-] | 1
CCCCNN | -1
CC(=O)OC1C(Oc2c(C)cc3c(c2O)[C@@H](C)CC[C@@H]3[C@@H](C)CCC=C(C)C)OCC(O)C1O (stereo partly specified) | -1
CC(=O)Oc1ccc(/C=C/C(=O)NCC(NC(=O)/C=C/c2ccc(OC(C)=O)c(OC(C)=O)c2)C(=O)O)cc1OC(C)=O (stereo unspecified) | -1
CCCCCC[C@@H]1CCC2C(CO)[C@@H](O)CC[C@@H]2C1 (stereo partly specified) | -1
COc1cc(CCc2ccncc2)cc(OC)c1OC | -1
N=C(N)NS(=O)(=O)c1ccc(NC(=O)c2c3ccccc3nc3ccccc23)cc1 | -1
CSc1nc(C)cc(N(C)c2ccccc2)n1 | -1
CN(C)/N=C1\C=C2CC[C@H](O[Si](C)(C)C(C)(C)C)[C@@]2(C)CC1 | -1
CN(C)CCCc1cccc2[nH]c3c(c12)CN(C)CC3 | -1

====

- Tested on: OVCAR-4
- EXPERIMENT_DESCRIPTION: NCI tumour cell line growth inhibition, 48 h
Calls of active or inactive are those of the source. Rule as the data show it: active = GI50 up to about 1.1 µM and inactive = higher.
Outcomes: yes (active), no (inactive)

COMPOUND | CLASSIFICATION
C/C(CC(=O)Nc1ccc([N+](=O)[O-])cc1)=N\NC(N)=O | no
O=C(CC1(O)C(=O)Nc2ccccc21)c1ccccc1Cl (stereo unspecified) | no
Cc1c(C2Cc3ccccc3N2)c2ccccc2n1C (stereo unspecified) | no
CCC1C(C(=O)Nc2ccccc2C)=C(C)NC(C)=C1c1ccccc1C (stereo unspecified) | no
N#CC1(C2CC(=O)N(c3ccccc3)C2=O)CCCCC1=O (stereo unspecified) | no
Cc1cc(=O)oc2c(C)c3oc(CBr)cc3cc12 | no
COc1ccc(C(=O)/C=C/c2ccc(O)c(O)c2)c(OC)c1 | no
COc1cc(C)c(S(=O)(=O)N(CCCN)OCCCN)c(C)c1C | no
O=C1CCCN1CCC/N=c1/cc2n(-c3ccc(Cl)cc3)c3ccccc3nc-2cc1Nc1ccc(Cl)cc1 | no
CCOc1cc(NC(C)=O)ccc1C(=O)NN1C(=O)CSC1c1ccc(O)c(OC)c1 (stereo unspecified) | no
CC(C)[C@H]1NC(=O)[C@H]2N=C(O[C@@H]2C)[C@@H]2CCCN2C(=O)[C@H](Cc2ccccc2)NC(=O)[C@@H]2CSC(=N2)[C@@H](Cc2ccccc2)NC(=O)[C@@H]2CSC1=N2 | no
O=C1C2CC(Cl)C(SSC3CC4C(=O)N(SC(Cl)(Cl)C(Cl)Cl)C(=O)C4CC3Cl)CC2C(=O)N1SC(Cl)(Cl)C(Cl)Cl (stereo unspecified) | no
CN(C)CCNc1nc2ccccc2c2c1C(=O)c1ccccc1-2 | yes
Cc1cc(O)nc(NN2C(Cl)C(=O)C2c2cccc(Cl)c2)n1 (stereo unspecified) | no
O=C(CC1(O)C(=O)Nc2c(Cl)ccc(Cl)c21)c1ccc(Cl)cc1 (stereo unspecified) | no
O=S(=O)(N/N=C/c1ccc(Cl)cc1Cl)c1ccccc1 | no
Cc1ccc(S(=O)(=O)NNC(=S)Nc2cccc3ccccc23)cc1 | no
CN(O)C(=O)CCC(NC(=O)CCC(N)C(=O)O)C(=O)NCC(=O)O (stereo unspecified) | no
COC1/C=C/C(C)C(C(C)C(OC)C(C)CCC(=O)C(C)C(CC(=O)O)OC)OC(=O)/C=C/C=C(\C)CC(OC)CC2=CC(=O)O[C@H](C2)C(C)C(OC)CC(OC)/C=C/C(C)C(OC)C1 (stereo partly specified) | yes
N#Cc1c(-c2ccccc2)cc(Nc2ccc(Cl)cc2)n2c1nc1ccccc12 | no
C=CCNC(=S)N1CC(C)C(=O)Nc2ccccc21 (stereo unspecified) | no
Nc1nc(Cl)nc2c1ncn2C1CC(O)C(CO)O1 (stereo unspecified) | no
CC(C)c1ccccc1NC(=O)CCc1n[nH]c(=S)o1 | no
CCOC1OC(=O)c2cc3ccc4c(c3c(-c3ccc5c(c3)OCO5)c21)OCO4 (stereo unspecified) | no
O=C1NC(=S)N(c2ccccc2)C1=O | no
CCO/C=N\c1c(C#N)c(-c2ccc(Cl)cc2)cn1-c1ccc(C)cc1 | no
NC1CC(=O)c2c(I)sc(I)c21 (stereo unspecified) | no
O=c1cc(-c2ccc(O)cc2)oc2cc(O[C@@H]3O[C@H](CO)[C@@H](O)[C@H](O)[C@H]3O)cc(O)c12 | no
O=C(Cc1nc2ccccc2s1)C(=O)Nc1ccc(Cl)cc1 | no
CSC(=O)/C=C1\SS/C(=C\C(=O)SC)S1 | no
CC(C)(C)OC(=O)NC(C)(C)C(=O)NCCC(=O)O | no
O=[N+]([O-])c1ccc2oc(=N/c3ccccc3)/c(=N\c3ccccc3)[nH]c2c1 | no
CCCC[C@@H]1CCN2C[C@@H](O)[C@@H](O)[C@H]2[C@@H]1O | no
N#CC(c1ccccc1)N1CCCN(C(C#N)c2ccccc2)C1c1ccccc1O (stereo unspecified) | no
COC(=O)C(=O)C(CC(=O)Nc1c(C)cccc1C)C(=O)OC (stereo unspecified) | no
NC(=O)c1csc(C2C=CC(CO)O2)n1 (stereo unspecified) | no
CC(C)N1CCN(c2ccc(OCC3COC(Cn4cncn4)(c4ccc(Cl)cc4Cl)O3)cc2)CC1 (stereo unspecified) | no
O=C(Nc1cccc2cnccc12)c1cc2c(cc1Cl)Sc1nccn1S2(=O)=O | no
C[C@]12OC[C@H](c3ccccc3)N1C(=O)C1[C@H]2CC12SCCS2 (stereo partly specified) | no
C/C(CC(=O)NC1=CC=C(NC(=O)C/C(C)=N\Nc2ccccc2)CC1)=N/Nc1ccccc1 | no
CN(C)CCn1c2c3ccccc3ccc2c2oc(=O)c3ccccc3c21 | no
